# target_of_assay: ADR - Alpha 2C (Homo sapiens, UniProt P18825)
# Sequence (P18825 1-462): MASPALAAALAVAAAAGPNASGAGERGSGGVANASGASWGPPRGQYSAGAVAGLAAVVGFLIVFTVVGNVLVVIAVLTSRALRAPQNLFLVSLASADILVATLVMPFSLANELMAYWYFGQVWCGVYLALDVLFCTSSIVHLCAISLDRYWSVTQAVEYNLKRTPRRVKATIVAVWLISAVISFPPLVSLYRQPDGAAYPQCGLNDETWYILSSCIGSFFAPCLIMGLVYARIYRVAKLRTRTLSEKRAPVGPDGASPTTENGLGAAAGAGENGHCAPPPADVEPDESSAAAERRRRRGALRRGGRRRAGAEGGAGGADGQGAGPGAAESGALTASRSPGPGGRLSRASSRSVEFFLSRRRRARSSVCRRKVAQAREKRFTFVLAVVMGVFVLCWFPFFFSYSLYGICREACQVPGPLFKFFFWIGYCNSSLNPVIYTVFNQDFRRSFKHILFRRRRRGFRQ
measure: pKi
Answer as the number alone; pKi is minus log10 of concentration in mol/L.

Ask: Report pKi for COc1ccccc1OCCNC[C@H](O)COc1ccc(O)cc1.COc1ccccc1OCCNC[C@H](O)COc1ccc(O)cc1.O=C(O)/C=C/C(=O)O [STD-101-D1] tested on ADR - Alpha 2C (Homo sapiens, UniProt P18825).
Reply: 6.97

====

# method_description: Pharmacokinetic study 2, 20-min post-dose collection
# Format: in vivo, Sprague-Dawley rats
# experimental_setup: Sprague-Dawley, brain, iv; rat, 10 mg/kg intravenously, single administration
measure: concentration at 20 min
Please answer using a numeric value trailed by its unit.

Ask: Name the recorded concentration at 20 min for COc1ccccc1OCCNC[C@H](O)COc1ccc(O)cc1.COc1ccccc1OCCNC[C@H](O)COc1ccc(O)cc1.O=C(O)/C=C/C(=O)O [STD-101-D1] .
Reply: 2500 nM

====

# target_of_assay: 5-HT 2C (Homo sapiens)
# Sequence (P28335 33-458, species assumed): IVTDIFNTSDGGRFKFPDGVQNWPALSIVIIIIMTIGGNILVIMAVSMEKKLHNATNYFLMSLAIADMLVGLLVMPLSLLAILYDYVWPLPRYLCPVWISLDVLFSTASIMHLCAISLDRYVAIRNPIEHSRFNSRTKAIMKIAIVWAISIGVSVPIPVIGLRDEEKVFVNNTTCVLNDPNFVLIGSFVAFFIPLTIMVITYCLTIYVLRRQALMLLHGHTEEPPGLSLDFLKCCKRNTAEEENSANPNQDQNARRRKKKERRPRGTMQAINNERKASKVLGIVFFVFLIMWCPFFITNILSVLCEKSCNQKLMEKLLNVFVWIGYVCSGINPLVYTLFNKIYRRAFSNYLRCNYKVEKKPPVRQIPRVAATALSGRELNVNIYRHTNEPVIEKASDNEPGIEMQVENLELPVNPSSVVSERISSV
measure: pKi
Entry type: numeric. Quantity: pKi, the -log10 of concentration in molar units.

Ask: Param item = COc1ccccc1OCCNC[C@H](O)COc1ccc(O)cc1.COc1ccccc1OCCNC[C@H](O)COc1ccc(O)cc1.O=C(O)/C=C/C(=O)O [STD-101-D1] ; retrieve measured pKi.
Reply: 5.94

====

# target_of_assay: ADRB3 (Homo sapiens, UniProt P13945)
# Sequence (P13945 whole entry): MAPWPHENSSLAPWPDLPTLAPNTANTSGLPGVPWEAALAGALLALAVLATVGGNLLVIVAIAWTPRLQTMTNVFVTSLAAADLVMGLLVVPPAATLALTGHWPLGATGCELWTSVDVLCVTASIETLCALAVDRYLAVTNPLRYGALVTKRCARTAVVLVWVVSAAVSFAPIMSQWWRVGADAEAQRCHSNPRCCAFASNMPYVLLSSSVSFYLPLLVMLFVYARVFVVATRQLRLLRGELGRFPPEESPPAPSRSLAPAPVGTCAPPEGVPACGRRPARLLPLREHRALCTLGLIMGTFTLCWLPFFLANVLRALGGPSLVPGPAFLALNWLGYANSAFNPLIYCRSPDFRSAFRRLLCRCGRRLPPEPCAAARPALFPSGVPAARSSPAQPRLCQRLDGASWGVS
measure: pKi
Please report pKi as the negative decimal logarithm of the molar concentration, giving only the number.

Ask: Please state recorded pKi (tested on ADRB3 (Homo sapiens, UniProt P13945)) of COc1ccccc1OCCNC[C@H](O)COc1ccc(O)cc1.COc1ccccc1OCCNC[C@H](O)COc1ccc(O)cc1.O=C(O)/C=C/C(=O)O [STD-101-D1]
Reply: 6.31

====

# target_of_assay: UniProtKB P08908
# Sequence (P08908 whole entry, species assumed): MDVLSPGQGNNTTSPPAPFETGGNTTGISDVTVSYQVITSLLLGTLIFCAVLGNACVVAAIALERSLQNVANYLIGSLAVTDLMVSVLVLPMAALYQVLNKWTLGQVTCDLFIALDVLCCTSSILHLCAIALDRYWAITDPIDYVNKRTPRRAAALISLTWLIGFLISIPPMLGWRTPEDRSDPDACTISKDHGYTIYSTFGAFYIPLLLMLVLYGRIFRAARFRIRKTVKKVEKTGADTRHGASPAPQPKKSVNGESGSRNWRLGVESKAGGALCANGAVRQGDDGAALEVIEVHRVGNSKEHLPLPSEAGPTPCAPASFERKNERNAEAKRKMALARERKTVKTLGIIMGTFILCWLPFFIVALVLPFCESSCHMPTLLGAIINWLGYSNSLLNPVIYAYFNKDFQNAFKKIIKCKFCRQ
measure: pKi
Interpret pKi as the negative base-10 log of the concentration measured in mol/L.

Ask: Any idea what pKi was measured for COc1ccccc1OCCNC[C@H](O)COc1ccc(O)cc1.COc1ccccc1OCCNC[C@H](O)COc1ccc(O)cc1.O=C(O)/C=C/C(=O)O [STD-101-D1] ?
Reply: 7.96

====

# target_of_assay: D3 dopamine receptor (Homo sapiens)
# Sequence (P35462 whole entry): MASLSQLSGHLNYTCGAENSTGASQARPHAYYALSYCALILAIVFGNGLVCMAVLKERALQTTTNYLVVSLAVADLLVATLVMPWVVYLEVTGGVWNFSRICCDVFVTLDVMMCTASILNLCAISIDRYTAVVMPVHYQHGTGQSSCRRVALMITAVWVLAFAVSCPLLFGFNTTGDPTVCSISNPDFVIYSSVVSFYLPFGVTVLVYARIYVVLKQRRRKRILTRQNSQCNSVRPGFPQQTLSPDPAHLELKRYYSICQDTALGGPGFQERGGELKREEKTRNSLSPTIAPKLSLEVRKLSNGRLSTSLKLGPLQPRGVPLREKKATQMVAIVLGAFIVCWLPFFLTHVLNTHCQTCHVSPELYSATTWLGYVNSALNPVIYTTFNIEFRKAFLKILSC
measure: pKi
Note on units: pKi is unitless, being -log10 of a concentration expressed in mol/L.

Ask: # pKi lookup, item COc1ccccc1OCCNC[C@H](O)COc1ccc(O)cc1.COc1ccccc1OCCNC[C@H](O)COc1ccc(O)cc1.O=C(O)/C=C/C(=O)O [STD-101-D1]
Reply: 7.33
